Entries annotated with measured CC50 at 24 h
# ASSAY_EXPLANATION: Cytotoxicity study of compounds with Vero E6 cells (CCK-8)
# MEASUREMENT_CONTEXT: African green monkey, Vero E6 cells, CC50 (μM)
VALUE_KIND: CC50 at 24 h

| SMILES_STRUCTURE | VALUE_KIND | OBS_VALUE |
| --- | --- | --- |
| OC1(c2ccc(Cl)c(C(F)(F)F)c2)CCN(CCCC(c2ccc(F)cc2)c2ccc(F)cc2)CC1 | CC50 at 24 h | 12.9 µM |
| CC(C)(C)c1cc(C(C)(C)C)c(NC(=O)c2c[nH]c3ccccc3c2=O)cc1O | CC50 at 24 h | 12.9 µM |
| Cc1c(O)cccc1C(=O)N[C@@H](CSc1ccccc1)[C@H](O)CN1C[C@H]2CCCC[C@H]2C[C@H]1C(=O)NC(C)(C)C | CC50 at 24 h | 12.3 µM |
| Nc1nc2nc[nH]c2c(=S)[nH]1 | CC50 at 24 h | 25.4 µM |

----------
# Test system: SARS-CoV-2 (hCoV-19/Taiwan/4/2020)
# ASSAY_EXPLANATION: microbe, parasite or virus in culture
# Assay type: cell-based
# MEASUREMENT_CONTEXT: Severe acute respiratory syndrome coronavirus 2, Vero C1008, 120 h; […]; N.I. = no inhibition; dash = cytotoxicity was observed; read-out: CPE (μM) D5

| SMILES_STRUCTURE | minimal effective concentration |
| --- | --- |
| CC[C@@H](C(=O)[C@@H](C)[C@@H](O)[C@H](C)[C@@H]1O[C@@H]([C@@H](CC)C(=O)O)CC[C@@H]1C)[C@H]1O[C@]2(C=C[C@@H](O)[C@]3(CC[C@@](C)([C@H]4CC[C@](O)(CC)[C@H](C)O4)O3)O2)[C@H](C)C[C@@H]1C | 0.156 µM |
| COc1ccc2cc1Oc1ccc(cc1)C[C@H]1c3c(cc4c(c3Oc3cc5c(cc3OC)CCN(C)[C@@H]5C2)OCO4)CCN1C | 7.5 µM |

----------
# ASSAY_EXPLANATION: in vitro
# MEASUREMENT_CONTEXT: African green monkey, CC50 (μM)
Entries annotated with measured CC50 at 24 h
VALUE_KIND: CC50 at 24 h (µM)

| COMPOUND | UNIT_TAG | OBS_VALUE |
| --- | --- | --- |
| CO/N=C1\C[C@]2(C[C@@H]3C[C@@H](C/C=C(\C)C[C@@H](C)/C=C/C=C4\CO[C@@H]5[C@H](O)C(C)=C[C@@H](C(=O)O3)[C@]45O)O2)O[C@H](/C(C)=C/C(C)C)[C@H]1C | µM | 6.88 |
| COc1ccc2cc1Oc1ccc(cc1)C[C@H]1c3c(cc4c(c3Oc3cc5c(cc3OC)CCN(C)[C@@H]5C2)OCO4)CCN1C | µM | 12.9 |
| CC1=C(C(=O)OC(C)C)C(c2cccc([N+](=O)[O-])c2)C(C(=O)OC2CN(C(c3ccccc3)c3ccccc3)C2)=C(N)N1 (stereo not shown) | µM | 12.9 |
| CCCCc1oc2ccc(NS(C)(=O)=O)cc2c1C(=O)c1ccc(OCCCN(CCCC)CCCC)cc1 | µM | 12.1 |
